# assay-notes: yeast growth modulation, basal conditions, primary screen, YJM789 clinical isolate, OD600, 24 h (AID 1089);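 further: growth of clinical yeast isolate S. cerevisiae YJM 789 seeded 1000 cells per well; test concentration not given here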
# conditions-used: S. cerevisiae YJM789 growth, higher = more signal, called active from +8 up or from −8 down
measure-name: z-score
Format: numeric value only, no unit, no commentary.

| molecule | z-score |
| --- | --- |
| CCN1C(=O)[C@H]2[C@H]3[C@H](O)[C@H](O)CC(=NO[C@@H]4O[C@H](COC(C)=O)[C@@H](OC(C)=O)[C@H](OC(C)=O)[C@H]4OC(C)=O)[C@@H]3CC[C@H]2C1=O | 0.461 |
| COC(=O)CC=C[C@@H](C)[C@@H](C=NOC(C)CN1CCCCc2nc(C)c(C)cc21)OC (some centres undefined) | -0.793 |
| C#CCCCON=C1C[C@@H](O)[C@@H](O)[C@@H]2[C@@H]3C(=O)N(C4CCCCC4)C(=O)[C@@H]3CC[C@@H]12 | -1.83 |
| COC(=O)[C@@H]1CC[C@H](C)[C@@H](c2ccc(C)cc2)N1C(=O)c1ccc(C=NOC[C@H]2O[C@H](c3ccccc3)C=C[C@@H]2Oc2ccc(OC)cc2)cc1 | 0.456 |
| CCOC(=O)[C@H](Cc1ccccc1)NC(=O)CCC1CC(OC(=O)NCc2cccc3ccccc23)CC2(CCCC(COC(=O)NCC3CCCCC3)O2)O1 (some centres undefined) | -0.617 |
| CC(C)=CCCC(C)=CCON=C1C[C@@H](O)[C@@H](O)[C@@H]2[C@@H]3C(=O)N(Cc4ccc5c(c4)OCO5)C(=O)[C@@H]3CC[C@@H]12 | 0.0718 |

Shift focus to the following entry.
What value of z-score has been reported for the following molecule? COC(=O)CC=C[C@@H](C)[C@@H](C=NOC(C)CN1CCCc2nc(C)c(C)cc21)NS(=O)(=O)c1ccc(C)cc1 (some centres undefined) 0.207
